Data origin, for the record: the Human Domainome abundance scans (Beltran et al. 2025)

B1: Chromodomain-helicase-DNA-binding protein 4, residues 444 to 496; numbered along this chain, Q14839 (parent)
chain: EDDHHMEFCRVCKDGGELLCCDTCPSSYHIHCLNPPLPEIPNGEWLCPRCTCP

# Variants of: B1
# test.details: abundance fitness (aPCA) (normalised: wild type 0, dead -1); higher = more abundant; growth selection in yeast, the domain comes from the species named
# conditions: Homo sapiens
endpoint: abundance fitness
The answer should be written as a number, with no unit following it.

Field: example entries. Status: answers known.
{"variant.description": "E39G", "abundance fitness": -0.056}
{"variant.description": "H31M", "abundance fitness": -0.063}
{"variant.description": "P38A", "abundance fitness": -0.014}
{"variant.description": "F8N", "abundance fitness": -0.044}
{"variant.description": "R49Q", "abundance fitness": 0.034}
{"variant.description": "H5W", "abundance fitness": 0.02}
{"variant.description": "C20M", "abundance fitness": 0.017}
{"variant.description": "L33H", "abundance fitness": -0.626}
{"variant.description": "H31C", "abundance fitness": -0.046}
{"variant.description": "N34V", "abundance fitness": -0.073}

Problem: So what's the measured abundance fitness for this one? `D2N`
Result: 0.091

Problem: So what's the measured abundance fitness for this one? `E44K`
Result: 0.064

Problem: So what's the measured abundance fitness for this one? `G16R`
Result: -0.424
